Molecular target: UniProtKB P52699
Sequence (P52699 whole entry, looked up, species assumed): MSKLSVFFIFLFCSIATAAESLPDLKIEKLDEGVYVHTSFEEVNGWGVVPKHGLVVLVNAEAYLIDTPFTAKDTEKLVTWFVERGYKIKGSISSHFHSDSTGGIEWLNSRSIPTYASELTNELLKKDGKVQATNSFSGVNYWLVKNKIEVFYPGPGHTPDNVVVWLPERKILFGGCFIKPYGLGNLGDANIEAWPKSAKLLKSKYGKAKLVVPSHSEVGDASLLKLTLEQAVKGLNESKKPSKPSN
Assay type: biochemical
Details: fluorescence assay, CCF2-FA substrate, 2 hours at 25° C.
pIC50: −log10 of the molar value.
readout: pIC50

INSERT INTO measurements (molecule, readout, measured) VALUES
  ('Nc1nc2c(-c3ccc(S(=O)(=O)N4CCN(CCO)CC4)c(S(N)(=O)=O)c3-c3nnn[nH]3)cccc2s1.O=C(O)C(F)(F)F [Example 92, trifluoroacetate]', 'pIC50', 8.93);

====

Catalogue of Serratia marcescens (IMP-1) MITC95 readings, one per entry.
Test system: Serratia marcescens expressing IMP-1 (CL5741)
Format: cell-based
Details: with imipenem 1 μg/ml; 95% inhibition of bacterial growth
Where a name gives a salt, the structure may show the parent alone.
readout: Serratia marcescens (IMP-1) MITC95 (µM)

INSERT INTO results (compound, target_of_assay, measured) VALUES
  ('NC[C@@H](N)CNS(=O)(=O)c1ccc(-c2cnc(N)s2)c(-c2nn[nH]n2)c1S(N)(=O)=O', 'Serratia marcescens expressing IMP-1 (CL5741)', 1.563),
  ('NCC(=O)NC1C=C(c2ccc(S(=O)(=O)N[C@@H]3CCNC3)c(S(N)(=O)=O)c2-c2nn[nH]n2)CCC1 (some centres unmarked)', 'Serratia marcescens expressing IMP-1 (CL5741)', 1.563),
  ('NCCNc1ncccc1-c1ccc(S(=O)(=O)N[C@@H]2CCNC2)c(S(N)(=O)=O)c1-c1nn[nH]n1', 'Serratia marcescens expressing IMP-1 (CL5741)', 1.563),
  ('NCCNS(=O)(=O)c1ccc(-c2cccc(NC[C@@H](O)CN)c2)c(-c2nn[nH]n2)c1S(N)(=O)=O', 'Serratia marcescens expressing IMP-1 (CL5741)', 1.563),
  ('C[C@H](CN)NS(=O)(=O)c1ccc(-c2cccnc2NCCN)c(-c2nn[nH]n2)c1S(N)(=O)=O', 'Serratia marcescens expressing IMP-1 (CL5741)', 1.563),
  ('NCCCCNS(=O)(=O)c1ccc(-c2cccc3[nH]c(N)nc23)c(-c2nn[nH]n2)c1S(N)(=O)=O', 'Serratia marcescens expressing IMP-1 (CL5741)', 0.7813),
  ('Nc1nc2c(-c3ccc(S(=O)(=O)NC[C@H]4CCCN4)c(S(N)(=O)=O)c3-c3nn[nH]n3)cccc2[nH]1', 'Serratia marcescens expressing IMP-1 (CL5741)', 0.7813),
  ('CN1CC(NS(=O)(=O)c2ccc(-c3cccc4[nH]c(N)nc34)c(-c3nn[nH]n3)c2S(N)(=O)=O)C1', 'Serratia marcescens expressing IMP-1 (CL5741)', 0.7813),
  ('C[N+]1(C)CC(NS(=O)(=O)c2ccc(-c3cccc4[nH]c(N)nc34)c(-c3nn[nH]n3)c2S(N)(=O)=O)C1.O=C([O-])O', 'Serratia marcescens expressing IMP-1 (CL5741)', 1.563),
  ('Nc1nc2c(-c3ccc(S(=O)(=O)NC[C@@H]4CNCCN4)c(S(N)(=O)=O)c3-c3nn[nH]n3)cccc2[nH]1', 'Serratia marcescens expressing IMP-1 (CL5741)', 0.7813),
  ('C[C@H](N)c1nc2c(-c3ccc(S(=O)(=O)N[C@@H]4CCNC4)c(S(N)(=O)=O)c3-c3nn[nH]n3)cccc2[nH]1', 'Serratia marcescens expressing IMP-1 (CL5741)', 1.563),
  ('Nc1ccc(-c2ccc(S(=O)(=O)NC[C@H](N)CO)c(S(N)(=O)=O)c2-c2nn[nH]n2)cn1', 'Serratia marcescens expressing IMP-1 (CL5741)', 0.7813),
  ('NC[C@@]1(NS(=O)(=O)c2ccc(-c3ccc(N)nc3)c(-c3nn[nH]n3)c2S(N)(=O)=O)CCNC1 [Example 487, dihydrochloride]', 'Serratia marcescens expressing IMP-1 (CL5741)', 0.7813),
  ('NC[C@H](N)CNS(=O)(=O)c1ccc(-c2cccc(-c3c[nH]c(N)n3)c2)c(-c2nn[nH]n2)c1S(N)(=O)=O', 'Serratia marcescens expressing IMP-1 (CL5741)', 1.563);

====

Quick list: Efflux ratio per entry.
System: Pseudomonas aeruginosa PAO1 MB9798 (efflux+, IMP-1)
Conditions: ratio MITC95 PA 9798/MITC95 PA 9799; imipenem at 2 μg/mL
Experimental: The strain background was Pseudomonas aeruginosa PAO1. The strain set was then used as a pair to determine the effect of metallo-β-lactamase inhibitors of Formula I on the MIC of imipenem and/or ceftazidime. […] A serial titration of the metallo-β-lactamase inhibitor was included and the concentration of metallo-β-lactamase inhibitor which restores susceptibility of the strain to the included antibiotic was recorded. […]
readout: Efflux ratio

INSERT INTO measurements (compound, readout, measured) VALUES
  ('NCCNS(=O)(=O)c1ccc(-c2cccnc2N)c(-c2nn[nH]n2)c1S(N)(=O)=O', 'Efflux ratio', 2.00),
  ('Nc1nc2c(-c3ccc(S(=O)(=O)NC[C@@H]4CCNC4)c(S(N)(=O)=O)c3-c3nn[nH]n3)cccc2[nH]1', 'Efflux ratio', 1.00),
  ('NCC1CCCCN1S(=O)(=O)c1ccc(-c2cccc3sc(N)nc23)c(-c2nnn[nH]2)c1S(N)(=O)=O.O=C(O)C(F)(F)F (stereo not shown)', 'Efflux ratio', 1.00),
  ('C[C@H](CN)NS(=O)(=O)c1ccc(-c2ccnc(N)c2)c(-c2nn[nH]n2)c1S(N)(=O)=O', 'Efflux ratio', 0.50);

====

# Efflux ratio per entry
Test system: Pseudomonas aeruginosa PAO1 MB9798 (efflux+, IMP-1)
Settings: ratio MITC95 PA 9798/MITC95 PA 9799; imipenem at 2 μg/mL
readout: Efflux ratio

INSERT INTO measurements (compound, readout, measured) VALUES
  ('Nc1nc2c(-c3ccc(S(=O)(=O)NCC4(N)CCOCC4)c(S(N)(=O)=O)c3-c3nnn[nH]3)cccc2s1.O=CO', 'Efflux ratio', 1.00),
  ('NC(=O)c1nc2c(-c3ccc(S(=O)(=O)N[C@@H]4CCNC4)c(S(N)(=O)=O)c3-c3nn[nH]n3)cccc2[nH]1', 'Efflux ratio', 0.50),
  ('Nc1nc2c(-c3ccc(S(=O)(=O)N4CCC(CO)CC4)c(S(N)(=O)=O)c3-c3nnn[nH]3)cccc2s1', 'Efflux ratio', 16.00),
  ('Nc1nc2c(-c3ccc(S(=O)(=O)NC4CNC[C@H]4N)c(S(N)(=O)=O)c3-c3nn[nH]n3)cccc2[nH]1 (stereo in doubt)', 'Efflux ratio', 0.83),
  ('CN1CC2(CCN(S(=O)(=O)c3ccc(-c4cccc5sc(N)nc45)c(-c4nnn[nH]4)c3S(N)(=O)=O)C2)C1', 'Efflux ratio', 1.00),
  ('CN1CCOC(CNS(=O)(=O)c2ccc(-c3cccc4sc(N)nc34)c(-c3nnn[nH]3)c2S(N)(=O)=O)C1 (stereo not drawn)', 'Efflux ratio', 2.00),
  ('NC[C@@H](N)CNS(=O)(=O)c1ccc(-c2cccc(-c3n[nH]c(N)n3)c2)c(-c2nn[nH]n2)c1S(N)(=O)=O', 'Efflux ratio', 1.00),
  ('CC(CN)NS(=O)(=O)c1ccc(-c2cccc3sc(N)nc23)c(-c2nnn[nH]2)c1S(N)(=O)=O.O=CO (stereo not drawn)', 'Efflux ratio', 0.50),
  ('Nc1nc2c(-c3ccc(S(=O)(=O)N[C@H]4CNC[C@@H]4O)c(S(N)(=O)=O)c3-c3nnn[nH]3)cccc2[nH]1', 'Efflux ratio', 1.00),
  ('Nc1nc2c(-c3ccc(S(=O)(=O)N[C@@H]4CN[C@H](CO)C4)c(S(N)(=O)=O)c3-c3nnn[nH]3)cccc2[nH]1', 'Efflux ratio', 0.50),
  ('Nc1nc2c(-c3ccc(S(=O)(=O)NC[C@]4(N)CCNC4)c(S(N)(=O)=O)c3-c3nn[nH]n3)cccc2[nH]1', 'Efflux ratio', 1.00),
  ('CC[C@H](CN)NS(=O)(=O)c1ccc(-c2cccc3[nH]c(N)nc23)c(-c2nn[nH]n2)c1S(N)(=O)=O', 'Efflux ratio', 1.00),
  ('Cn1c(N)nc2c(-c3ccc(S(=O)(=O)NC[C@@H](O)CN)c(S(N)(=O)=O)c3-c3nn[nH]n3)cccc21', 'Efflux ratio', 1.00),
  ('NS(=O)(=O)c1ccc(-c2cccc3[nH]c(C(=O)O)nc23)c(-c2nn[nH]n2)c1S(N)(=O)=O', 'Efflux ratio', 1.00),
  ('NC[C@H]1CCN(S(=O)(=O)c2ccc(-c3cccc4sc(N)nc34)c(-c3nnn[nH]3)c2S(N)(=O)=O)C1', 'Efflux ratio', 1.00),
  ('C[N+]1(C)CC(NS(=O)(=O)c2ccc(-c3cccc4[nH]c(N)nc34)c(-c3nn[nH]n3)c2S(N)(=O)=O)C1.O=C([O-])O', 'Efflux ratio', 1.00),
  ('C[C@@H](N)c1nc2c(-c3ccc(S(=O)(=O)N[C@@H]4CCNC4)c(S(N)(=O)=O)c3-c3nn[nH]n3)cccc2[nH]1', 'Efflux ratio', 1.00),
  ('CN(C[C@@H]1CCCN1)S(=O)(=O)c1ccc(-c2cccc3sc(N)nc23)c(-c2nnn[nH]2)c1S(N)(=O)=O.O=CO', 'Efflux ratio', 4.00),
  ('Nc1nc2c(-c3ccc(S(=O)(=O)NC[C@@H](N)CO)c(S(N)(=O)=O)c3-c3nn[nH]n3)cccc2[nH]1', 'Efflux ratio', 0.50),
  ('NC[C@H](O)CNS(=O)(=O)c1ccc(-c2ccncc2N)c(-c2nn[nH]n2)c1S(N)(=O)=O', 'Efflux ratio', 1.00),
  ('NC[C@@H](CO)NS(=O)(=O)c1ccc(-c2cccc(N)n2)c(-c2nn[nH]n2)c1S(N)(=O)=O', 'Efflux ratio', 1.00),
  ('NCC(CN)NS(=O)(=O)c1ccc(-c2cccc(-c3nc[nH]n3)c2)c(-c2nn[nH]n2)c1S(N)(=O)=O', 'Efflux ratio', 1.00),
  ('Nc1nc2c(-c3ccc(S(=O)(=O)N[C@H]4CN[C@@H](CO)C4)c(S(N)(=O)=O)c3-c3nnn[nH]3)cccc2s1', 'Efflux ratio', 0.50),
  ('N[C@H]1C=C(c2ccc(S(=O)(=O)N[C@@H]3CCNC3)c(S(N)(=O)=O)c2-c2nn[nH]n2)CCC1', 'Efflux ratio', 4.00),
  ('NCCN1CC[C@H](NS(=O)(=O)c2ccc(-c3cccc4[nH]c(N)nc34)c(-c3nn[nH]n3)c2S(N)(=O)=O)C1', 'Efflux ratio', 1.00),
  ('Nc1nc2c(-c3ccc(S(=O)(=O)N4CC5CC4CS5(=O)=O)c(S(N)(=O)=O)c3-c3nnn[nH]3)cccc2s1 (stereo not drawn)', 'Efflux ratio', 16.00),
  ('NS(=O)(=O)c1c(S(=O)(=O)N[C@@H]2CCNC2)ccc(-c2cccc3[nH]nnc23)c1-c1nn[nH]n1', 'Efflux ratio', 0.50);
